# ASSAY OVERVIEW: soluble on expression in E. coli; label from the status in PepcDB or PDB records
TEST READOUT: soluble on expression in E. coli

1. MSRPTIIINDLDAERIDILLEQPAYAGLPIADALNAELDRAQMCSPEEMPHDVVTMNSRVKFRNLSDGEVRVRTLVYPAKMTDSNTQLSVMAPVGAALLGLRVGDSIHWELPGGVATHLEVLELEYQPEAAGDYLL : soluble
2. MVSNAYQGIGSEYETLLKASGRENEVFKKRVGKDRVMATTVHGWWQETMWQRSSSLFTDGRICSCWRLSPTSSRGLQPTYQRKRDFTTGRYGKNACG : not soluble
3. QKFIARNRAPRVQIEYDVELYGAEKKVQLPFVMGVMADLAGKPAEPQAAVADRKFLEIDVDNFDARLKAMKPRVAFNVPNVLTGEGNLSLDITFESMDDFSPAAVARKVDSLNKLLEARTQLANLLTYMDGKTGAEEMIMKAIKDPALLQALASAPKPK : not soluble
4. LFNYKEGDSFFIRGPYGNGFDVSLYEGREIVVVAGGSALAPVRGIVEYFYNNKEKCEKFKLIVGFKSPKDILFADDLKRWSKKLDILVTVDGAEEGYSGNVGLVTKYIPELDMKDINNTSIVVVGPPMMMKFTVEEFLKRDLDEKNIWV : not soluble

Now turn to the next sequence.
Query: # input sequence: EHAPATTGPLPSAPRDVVASLVSTRFIKLTWRTPASDPHGDNLTYSVFYTKEGIARERVENTSHPGEMQVTIQNLMPATVYIFRVMAQNKHGSGESSAPLRVETQPE ; wanted: its soluble on expression in E. coli
Reply: soluble
